tested on: SNB-75 CNS; experiment: NCI tumour cell line growth inhibition, 48 h
property_name: TGI

Ask: // map `N#CN1CC[C@H](C(=O)Nc2ncc(-c3ccccc3)s2)C1` to recorded TGI (system: SNB-75 CNS)
Reply: 2.69 µM

Ask: // map `Cc1cc(NC(=O)NC(=O)c2ccccc2NC(=O)CN(C)C)ccc1Oc1ncc(Br)cn1` to recorded TGI (system: SNB-75 CNS)
Reply: 37.2 µM

Ask: // map `COc1cccc2c(=O)oc(-c3ccccc3C)nc12` to recorded TGI (system: SNB-75 CNS)
Reply: > 100 µM

Ask: // map `O=c1c2[nH]cnc2n(-c2ccccc2)c(=S)n1-c1ccccc1` to recorded TGI (system: SNB-75 CNS)
Reply: > 100 µM

Ask: // map `C1CN2CCO[SiH](O1)OCC2` to recorded TGI (system: SNB-75 CNS)
Reply: > 100 µM
